system: 415267-285-R-J2-PDC complex spheroid viability; assay: Anticancer human tumor 415267-285-R-J2-PDC patient-derived breast carcinoma cell line growth inhibition [POLQ]; conditions: second compound 0.1 µM; first compound 0.0316 µM; hits give low values;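 also: luminescence used as stand-in measure of viable cells; spheroids exposed to compounds for one week before readout; 100% = DMSO vehicle control viability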
readout label: viability, T/C (%)
Reply with just the number (in %).

Worked set:
molecule="CCc1cc2c(N3CCc4c(cc(Cn5ccnc5)cc4-c4cn(C)nc4C(F)(F)F)C3=O)cc(C)nc2c(OC)n1 + Cc1cccc(N(C)C(=O)C2C(O)CCN2c2nc(C)cc(C(F)(F)F)c2C#N)c1" obs_value=93
molecule="O=C(c1cc(Cc2n[nH]c(=O)c3ccccc23)ccc1F)N1CCN(C(=O)C2CC2)CC1 + COC1C(OC(N)=O)C(O)C(Oc2ccc3c(O)c(NC(=O)c4ccc(O)c(CC=C(C)C)c4)c(=O)oc3c2C)OC1(C)C" obs_value=95.5
molecule="CC1COCCN1c1cc(C2(O)CC3CCC(C2)O3)c2cnn(-c3ccn[nH]3)c2n1 (stereo unspecified) + Nc1ccc(C#CCN(C(=O)Cc2ncc(C(F)(F)F)cc2C(F)(F)F)c2ccc(F)cc2)nn1" obs_value=22

Consider the molecule Cn1ncnc1[C@H]1c2n[nH]c(=O)c3cc(F)cc(c23)N[C@@H]1c1ccc(F)cc1 + Nc1ccc(C#CCN(C(=O)Cc2ncc(C(F)(F)F)cc2C(F)(F)F)c2ccc(F)cc2)nn1 and give its measured viability, T/C.
99.8

What do you have for CCc1cc2c(N3CCc4c(cc(Cn5ccnc5)cc4-c4cn(C)nc4C(F)(F)F)C3=O)cc(C)nc2c(OC)n1 + Nc1ccc(C#CCN(C(=O)Cc2ncc(C(F)(F)F)cc2C(F)(F)F)c2ccc(F)cc2)nn1 ?
99.5

What do you have for CNCc1ccc(-c2[nH]c3cc(F)cc4c3c2CCNC4=O)cc1 + COC1C(OC(N)=O)C(O)C(Oc2ccc3c(O)c(NC(=O)c4ccc(O)c(CC=C(C)C)c4)c(=O)oc3c2C)OC1(C)C ?
97.7

What do you have for CCCS(=O)(=O)Nc1ccc(F)c(C(=O)c2c[nH]c3ncc(-c4ccc(Cl)cc4)cc23)c1F + COC1C(OC(N)=O)C(O)C(Oc2ccc3c(O)c(NC(=O)c4ccc(O)c(CC=C(C)C)c4)c(=O)oc3c2C)OC1(C)C ?
103

What do you have for Nc1ccn(C2OC(CO)C(O)C2(F)F)c(=O)n1 (stereo unspecified) + COC1C(OC(N)=O)C(O)C(Oc2ccc3c(O)c(NC(=O)c4ccc(O)c(CC=C(C)C)c4)c(=O)oc3c2C)OC1(C)C ?
7.63

What do you have for CCc1cc2c(N3CCc4c(cc(Cn5ccnc5)cc4-c4cn(C)nc4C(F)(F)F)C3=O)ccnc2c(OC)n1 + Cc1cccc(N(C)C(=O)C2C(O)CCN2c2nc(C)cc(C(F)(F)F)c2C#N)c1 ?
102

What do you have for C#Cc1c(F)ccc2cc(O)cc(-c3ncc4c(N5CC6CCC(C5)N6)nc(OCC56CCCN5CC(F)C6)nc4c3F)c12 (stereo unspecified) + Cc1cccc(N(C)C(=O)C2C(O)CCN2c2nc(C)cc(C(F)(F)F)c2C#N)c1 ?
91.2

What do you have for Cn1ncnc1[C@H]1c2n[nH]c(=O)c3cc(F)cc(c23)N[C@@H]1c1ccc(F)cc1 + Cc1cccc(N(C)C(=O)C2C(O)CCN2c2nc(C)cc(C(F)(F)F)c2C#N)c1 ?
99.9

What do you have for CCc1c2c(nc3ccc(O)cc13)-c1cc3c(c(=O)n1C2)COC(=O)[C@]3(O)CC + Nc1ccc(C#CCN(C(=O)Cc2ncc(C(F)(F)F)cc2C(F)(F)F)c2ccc(F)cc2)nn1 ?
4.81
